Source: the supplement of paper PMC9433436

Target: E. coli RNase P holoenzyme (M1 P RNA + rnpA protein)
Sequence: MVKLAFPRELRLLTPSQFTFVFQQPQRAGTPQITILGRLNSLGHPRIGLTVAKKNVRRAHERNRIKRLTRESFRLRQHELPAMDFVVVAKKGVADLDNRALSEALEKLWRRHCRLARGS
Assay: relative kcat/Km (krel) vs genomic leader AAAGAU (relative (reference leader = 1)); higher = faster RNase P cleavage
Conditions: fraction of substrate reacted: ~26-29% (28.66% repeat 1, 26.4% repeat 2)
Over roughly 4,100 sequences, “relative kcat/Km (krel) vs genomic leader AAAGAU” has its median near 1.7; the highest 2% begin near 6.5. For the sample, the highest values were picked, then their nearest neighbours and some sequences at random.
This listing pairs sequences with measured relative kcat/Km.
Give the figure by itself; no unit, no explanation.

These recorded examples may help you get a feel for the data.
Input: Give the measured relative kcat/Km of CCCTTC .
Output: 4.51

Input: Follow-up entry: AGTGTT
Output: 1.34

Input: CAACCC ?
Output: 1.22

Input: Now the sequence TCCTTT
Output: 6.89

Input: Do the same for TACATA please
Output: 6.5

Input: Same for CACCTG
Output: 0.873

Input: Next sequence: GGGATG
Output: 0.779

Input: What would you report for GGAGCC ?
Output: 1.3

Input: Entry to check: TTAAGA
Output: 3.88

Kindly consider the entry below.
Input: # input sequence: AGTAGG ; wanted: its relative kcat/Km
Output: 1.52

###

# relative kcat/Km annotations
Target: E. coli RNase P holoenzyme (M1 P RNA + rnpA protein) (UniProt P0A7Y8)
Sequence: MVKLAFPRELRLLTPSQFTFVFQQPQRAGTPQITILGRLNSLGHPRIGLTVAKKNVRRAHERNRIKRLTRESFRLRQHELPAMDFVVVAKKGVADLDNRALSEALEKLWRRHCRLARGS
Assay: relative kcat/Km (krel) vs genomic leader AAAGAU (relative (reference leader = 1)); higher = faster RNase P cleavage
Conditions: fraction of substrate reacted: ~9-10% (9.79% repeat 1, 9.1% repeat 2)
Over roughly 4,100 sequences, “relative kcat/Km (krel) vs genomic leader AAAGAU” has its median near 1.7; the highest 2% begin near 6.5. Only a selection was taken, and the highest values are over-represented in it overall.

Worked set:
Input: Quick check: relative kcat/Km of ACTGTC ?
Output: 1.77

Input: Lookup CTCATC
Output: 3.63

Input: Now consider TCCAAA and answer again.
Output: 3.88

New cases:
Input: Using the record for CTTATT , report its relative kcat/Km.
Output: 2.42

Input: Then TCCAAC ?
Output: 3.85

Input: # repeat for ACACCT
Output: 2.6

Input: Would you kindly repeat that for TCCAAG ?
Output: 2.34

Input: Another: GGCATC
Output: 1.73

Input: Then this sequence: AGCACC
Output: 2.38

Input: Can you handle CTCATT next?
Output: 3.69

Input: Item: GATAAC
Output: 2.1

Input: # iterate: TTCGAC
Output: 5.66

Input: // repeat for GGGTTC and report
Output: 0.445

Input: Check GTCATC too.
Output: 4.03

Input: Continue with GCCAAG
Output: 0.818

Input: Next record, please: ACCAAT
Output: 2.48

Input: Similarly, AGAGAT ?
Output: 0.682

###

Biological target: E. coli RNase P holoenzyme (M1 P RNA + rnpA protein)
Sequence: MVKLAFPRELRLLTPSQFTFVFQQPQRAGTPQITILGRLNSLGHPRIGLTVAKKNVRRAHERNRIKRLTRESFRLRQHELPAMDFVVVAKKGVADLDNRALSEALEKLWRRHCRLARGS
Experiment: relative kcat/Km (krel) vs genomic leader AAAGAU (relative (reference leader = 1)); higher = faster RNase P cleavage
Settings: fraction of substrate reacted: ~26-29% (28.66% repeat 1, 26.4% repeat 2)
In all, about 4,100 sequences were measured (“relative kcat/Km (krel) vs genomic leader AAAGAU”: median about 1.7, highest 2% from about 6.5 on). The sample holds the highest values, similar sequences and a random draw of the others, so the mix is not that of the screen.
Each record's class is read off its relative kcat/Km using these ranges: lower bin (below 3), middle bin (3 to below 5), upper bin (5 or more)

Input: Which class holds TTTGCC ?
Output: lower bin

Input: Same lookup for ATCCAC , please.
Output: upper bin

Input: Try this sequence next: TTTCTA
Output: lower bin

Input: What do we get for TGGACC ?
Output: lower bin

Input: Another sequence to check: TTCTAA
Output: upper bin

Input: Also ACTGTC , if possible.
Output: lower bin

Input: Now consider CGGATT .
Output: lower bin

Input: Now the same for GGCTAA
Output: middle bin

Input: Record: AGCCAT
Output: middle bin

###

Biological target: E. coli RNase P holoenzyme (M1 P RNA + rnpA protein) (UniProt P0A7Y8)
Sequence: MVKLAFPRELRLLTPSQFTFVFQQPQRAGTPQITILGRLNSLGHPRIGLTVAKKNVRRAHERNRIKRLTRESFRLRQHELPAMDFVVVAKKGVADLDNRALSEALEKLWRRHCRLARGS
Assay: relative kcat/Km (krel) vs genomic leader AAAGAU (relative (reference leader = 1)); higher = faster RNase P cleavage
Settings: fraction of substrate reacted: ~9-10% (9.79% repeat 1, 9.1% repeat 2)
Whole data set: some 4,100 sequences, median “relative kcat/Km (krel) vs genomic leader AAAGAU” near 1.7, cut for the highest 2% near 6.5. For the sample, the highest values were picked, then their nearest neighbours and some sequences at random.
assay readout: relative kcat/Km
Could you keep your reply to the number by itself?

Worked set:
Input: Given GTCGTC , state its recorded relative kcat/Km.
Output: 3.09

Input: Same lookup for TACGAT , please.
Output: 2.93

Input: How about CGCCAA ?
Output: 2.95

Others:
Input: Look at this sequence and give its reported relative kcat/Km. ACATAC
Output: 3.09

Input: Lookup TACACA
Output: 3.05

###

Molecular target: E. coli RNase P holoenzyme (M1 P RNA + rnpA protein) (UniProt P0A7Y8)
Sequence: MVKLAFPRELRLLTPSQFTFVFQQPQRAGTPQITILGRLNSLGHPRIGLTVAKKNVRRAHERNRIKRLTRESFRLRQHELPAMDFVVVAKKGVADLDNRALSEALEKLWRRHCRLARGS
Experiment: relative kcat/Km (krel) vs genomic leader AAAGAU (relative (reference leader = 1)); higher = faster RNase P cleavage
Conditions: fraction of substrate reacted: ~26-29% (28.66% repeat 1, 26.4% repeat 2)
Over roughly 4,100 sequences, “relative kcat/Km (krel) vs genomic leader AAAGAU” has its median near 1.7; the highest 2% begin near 6.5. The sample as a whole holds a higher share of the highest values than the screen did.
assay readout: relative kcat/Km
Could you respond with only the numeric value?

Look over these answered cases.
Input: Which relative kcat/Km value belongs to ATCCGG ?
Output: 0.881

Input: Now the sequence AGACGT
Output: 1.98

Input: Please do the same for GACTCC as well.
Output: 5.61

New cases:
Input: State the recorded relative kcat/Km for this entry: TCACGC
Output: 4.05

Input: Please answer likewise for GCCAAT
Output: 4.52

Input: Repeat with GGCGAA
Output: 3.85

Input: Then GATACC ?
Output: 1.67

Input: Next sequence up: TTCCGA
Output: 9.5

###

# relative kcat/Km annotations
Biological target: E. coli RNase P holoenzyme (M1 P RNA + rnpA protein)
Sequence: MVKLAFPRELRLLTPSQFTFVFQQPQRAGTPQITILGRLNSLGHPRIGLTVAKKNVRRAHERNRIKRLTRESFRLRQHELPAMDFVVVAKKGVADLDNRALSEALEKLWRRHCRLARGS
Assay: relative kcat/Km (krel) vs genomic leader AAAGAU (relative (reference leader = 1)); higher = faster RNase P cleavage
Conditions: fraction of substrate reacted: ~13-16% (15.68% repeat 1, 13.17% repeat 2)
Over roughly 4,100 sequences, “relative kcat/Km (krel) vs genomic leader AAAGAU” has its median near 1.7; the highest 2% begin near 6.5. The full list was thinned out, with the highest values kept by preference.
Please respond with just the number, no unit label.

Example results:
Input: Value lookup for relative kcat/Km; key = ATCGAC
Output: 4.75

Input: Same question, CTACAC this time
Output: 3

Input: Lookup CTCTCC
Output: 4.91

Input: Follow-up entry: ATTCCT
Output: 2.19

Input: Query TACGAT next
Output: 2.79

New cases:
Input: Entry under review: TACATG . Reported relative kcat/Km?
Output: 1.44

###

Reported relative kcat/Km values for a set of sequences
Target: E. coli RNase P holoenzyme (M1 P RNA + rnpA protein) (UniProt P0A7Y8)
Sequence: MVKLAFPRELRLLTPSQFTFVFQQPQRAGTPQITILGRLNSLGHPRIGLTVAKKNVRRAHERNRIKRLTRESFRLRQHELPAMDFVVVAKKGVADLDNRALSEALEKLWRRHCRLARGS
Assay: relative kcat/Km (krel) vs genomic leader AAAGAU (relative (reference leader = 1)); higher = faster RNase P cleavage
Conditions: fraction of substrate reacted: ~9-10% (9.79% repeat 1, 9.1% repeat 2)
Whole data set: some 4,100 sequences, median “relative kcat/Km (krel) vs genomic leader AAAGAU” near 1.7, cut for the highest 2% near 6.5. What follows is part of a selection rich in the highest values, with near analogues and random picks from the rest.

Input: Could you tell me which relative kcat/Km is on file for ATCACT ?
Output: 3

Input: Also CACATT ?
Output: 3.5

Input: Moving on to CTCTTT
Output: 3.59

Input: Another sequence to look at: CTCGCC
Output: 4.36

New cases:
Input: Recorded relative kcat/Km of CCCACT , please.
Output: 1.87
